# tested-on: Geranylgeranyl transferase type I (Bos taurus, UniProt P29702+Q5EAD5)
# test-summary: Inhibition of bovine Geranylgeranyl transferase type I
reported-property: IC50 (µM)

CCC[C@H](NC[C@@H](NC[C@@H](N)CS)[C@H](C)CC)C(=O)N[C@@H](CCO)C(=O)O : 10
CC[C@@H](C)[C@@H](CN[C@@H](Cc1ccccc1)C(=O)N[C@@H](CCO)C(=O)O)NC[C@@H](N)CS : 10
CC[C@@H](C)[C@@H](CN(C)CC(=O)N[C@@H](CCO)C(=O)O)NC[C@@H](N)CS : 10
